# inhibition annotations
System: calpain II (m-calpain), Sus scrofa
MEASUREMENT PROTOCOL: inhibitors of pig calpain II, primary screen, biochemical, fluorogenic peptide substrate, 1536-well (AID 1236)
MEASUREMENT CONDITIONS: purified calpain II, 30 min, at 16 µM, hits give high values
Among all 220,000 compounds or so, about 800 (0.36%) were called active. The entries come from a sample that favours actives as a whole.
The reply should be a number in %, with the unit left off.

CCC(C(=O)OCC(=O)Nc1ccc(C(=O)Nc2ccc(OC)cc2)cc1)c1ccccc1 (stereo not given)	38
Nc1nc(-c2sc3nc4c(cc3c2N)CCCC4)nc(N2CCOCC2)n1	-253
Cc1cccc2cc3c(N)c(C(=O)N4CCCc5ccccc54)sc3nc12	-64.7
CCC(C(=O)OCC(=O)Nc1c(Cl)cc(Cl)cc1Cl)c1ccccc1 (stereo not given)	11.9
CC1=NN(c2ccccc2)C(=O)C1C(=O)c1ccc([N+](=O)[O-])cc1 (stereo not given)	2.01
CCC(C(=O)OCC(=O)Nc1ccccc1-c1ccccc1)c1ccccc1 (stereo not given)	56.9
CCOC(=O)CN(C)S(=O)(=O)c1ccc(-c2cc(C(=O)OC)sc2C(F)(F)F)cc1	17.5
O=C(OCC#CCSc1nnc(-c2ccncc2)o1)c1sc2ccccc2c1Cl	20.6
COC(=O)Cn1c(O)c(N=NC(=O)OC)c2ccccc21	-10.4

Next up:
Tell us which inhibition value is on record for Cc1ccc(NN=C2C(=O)OC(C)(C)OC2=O)c(C)c1
6.22
